- Assayed Target: Serine/threonine-protein kinase Nek2 (Homo sapiens, UniProt P51955)
- Sequence (P51955 whole entry): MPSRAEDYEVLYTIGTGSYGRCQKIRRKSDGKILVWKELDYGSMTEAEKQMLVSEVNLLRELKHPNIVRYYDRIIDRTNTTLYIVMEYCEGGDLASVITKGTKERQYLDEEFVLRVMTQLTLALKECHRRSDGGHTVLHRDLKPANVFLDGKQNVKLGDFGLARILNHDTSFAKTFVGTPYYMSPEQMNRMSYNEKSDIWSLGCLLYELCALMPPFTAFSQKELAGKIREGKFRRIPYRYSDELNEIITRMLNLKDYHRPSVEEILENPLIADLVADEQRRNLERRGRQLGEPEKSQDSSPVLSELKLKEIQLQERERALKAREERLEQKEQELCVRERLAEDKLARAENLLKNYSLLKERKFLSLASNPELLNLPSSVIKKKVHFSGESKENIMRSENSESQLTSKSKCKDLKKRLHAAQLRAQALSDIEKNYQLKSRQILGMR
- Experiment Notes: Inhibition of recombinant human full length N-terminal His6-tagged NEK2 expressed in baculovirus Sf21 insect cells preincubated for 5 mins followed by substrate addition after 30 to 60 mins in presence of ATP by fluorescence assay
pIC50: −log10 of the molar value.

# Compound Smiles, pIC50
records = [
    ("C=CS(=O)(=O)N1CCC[C@@H]1Cn1cc(-c2ccc3c(c2)OCO3)c2c(N)ncnc21", "< 5.00"),
]

---

- Assayed Target: Receptor-interacting serine/threonine-protein kinase 2 (Homo sapiens, UniProt O43353)
- Sequence (O43353 whole entry, the tested form may be a part): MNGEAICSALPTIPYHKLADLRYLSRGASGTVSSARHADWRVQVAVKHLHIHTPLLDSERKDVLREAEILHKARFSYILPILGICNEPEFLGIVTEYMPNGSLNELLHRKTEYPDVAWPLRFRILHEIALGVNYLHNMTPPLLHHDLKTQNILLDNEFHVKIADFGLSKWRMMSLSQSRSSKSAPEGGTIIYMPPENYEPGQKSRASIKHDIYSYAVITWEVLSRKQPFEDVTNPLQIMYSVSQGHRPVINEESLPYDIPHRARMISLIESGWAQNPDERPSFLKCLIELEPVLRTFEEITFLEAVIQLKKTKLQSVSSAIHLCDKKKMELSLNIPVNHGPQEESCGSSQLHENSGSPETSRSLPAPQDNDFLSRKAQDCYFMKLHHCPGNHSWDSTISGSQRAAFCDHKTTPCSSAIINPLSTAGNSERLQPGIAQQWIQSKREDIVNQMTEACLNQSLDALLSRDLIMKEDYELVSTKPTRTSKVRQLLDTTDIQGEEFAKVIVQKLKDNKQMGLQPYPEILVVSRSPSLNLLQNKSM
- Experiment Notes: Inhibition of recombinant human N-terminal His6-tagged RIPK2 (1 to 299 residues) expressed in baculovirus Sf21 insect cells preincubated for 5 mins followed by substrate addition after 30 to 60 mins in presence of ATP by fluorescence assay
pIC50: −log10 of the molar value.
Attribute Measured: pIC50

# Compound Smiles, Assayed Target, Recorded Measurement
records = [
    ("C=CS(=O)(=O)N1CCC[C@@H]1Cn1cc(-c2ccc3c(c2)OCO3)c2c(N)ncnc21", "Receptor-interacting serine/threonine-protein kinase 2 (Homo sapiens, UniProt O43353)", 6.39),
]
